test system: Fibroblast; assay: Multiplex assay against human fibroblast; type: toxicity, cell-based; details: 24 h, 1 µM, compound concentration 1 uM, replicate 2
Population Pyknosed Nuclei (%) values for the compounds below.

chem.smiles: O=C1N/C(=N/c2ccccc2F)S/C1=C\c1ccc(C(=O)O)cc1
Population Pyknosed Nuclei (%): 7
//
chem.smiles: COc1ccc(-c2ccc3c(N4CCOCC4)nc(N4C[C@@H](C)O[C@@H](C)C4)nc3n2)cc1CO
Population Pyknosed Nuclei (%): 6
//
chem.smiles: O=C1NC(=O)C(c2cnc3ccccn23)=C1c1cn2c3c(cc(F)cc13)CN(C(=O)N1CCCCC1)CC2
Population Pyknosed Nuclei (%): 8
//
chem.smiles: CCc1cccc(CC)c1NC(=O)c1nn(C)c2c1CCc1cnc(Nc3ccc(C(=O)NC4CCN(C)CC4)cc3OC(F)(F)F)nc1-2
Population Pyknosed Nuclei (%): 11
//
chem.smiles: CCCn1c(=O)c2[nH]c(-c3cnn(Cc4cccc(C(F)(F)F)c4)c3)nc2n(CC)c1=O
Population Pyknosed Nuclei (%): 4
//
chem.smiles: NC(=O)c1cccc(-c2cc(Nc3ccc(OC(F)(F)F)cc3)ncn2)c1
Population Pyknosed Nuclei (%): 6

---

Population Mitochondria Different-Phenotype (%) values for the compounds below.
tested on: U2OS; assay: Multiplex assay against U2OS; assay type: toxicity, cell-based; settings: human, 48 h, 10 µM, compound concentration 10 uM, replicate 2
measurement.type: Population Mitochondria Different-Phenotype (%)

compound: CCOC(=O)c1c(C)[nH]c2ccc3c(c12)CN1CCc2cc(OC)ccc2C1O3 (configuration not stated)
system.under.test: U2OS
unit.annotation: %
recorded.result: 100
//
compound: Cl.Oc1ccc2c3c1O[C@H]1c4[nH]c5c(c4C[C@@]4(O)[C@@H](C2)N(CC2CC2)CC[C@]314)C[C@@]1(O)[C@H]2Cc3ccc(O)c4c3[C@@]1(CCN2CC1CC1)[C@H]5O4
system.under.test: U2OS
unit.annotation: %
recorded.result: 34
//
compound: CCCS(=O)(=O)c1nc(NC2CC2)cc(-c2ccc3c(ccn3C3CC(C)(C)NC(C)(C)C3)c2)n1
system.under.test: U2OS
unit.annotation: %
recorded.result: 81
//
compound: Cl.O=c1c2cccn2c2ccccc2n1CCCN1CCC(c2ccc(Cl)cc2)CC1
system.under.test: U2OS
unit.annotation: %
recorded.result: 97
//
compound: CN1CCC(=C2c3ccccc3CC(=O)c3sccc32)CC1.O=C(O)/C=C/C(=O)O [KETOTIFEN FUMARATE]
system.under.test: U2OS
unit.annotation: %
recorded.result: 75
//
compound: Cc1cc(C)c(S(=O)(=O)N(Cc2ccc(-c3cccc(S(C)(=O)=O)c3)cc2)Cc2ccc(C(F)(F)F)o2)c(C)c1
system.under.test: U2OS
unit.annotation: %
recorded.result: 10
//
compound: CCOc1cc(C(=O)N2CCC(N3CCN(C)CC3)CC2)ccc1Nc1ncc2c(n1)N(C1CCCC1)c1ccccc1C(=O)N2C
system.under.test: U2OS
unit.annotation: %
recorded.result: 86
//
compound: O=C1NC(=O)C(c2cnc3ccccn23)=C1c1cn2c3c(cc(F)cc13)CN(C(=O)N1CCCCC1)CC2
system.under.test: U2OS
unit.annotation: %
recorded.result: 89
//
compound: O=C(Cc1ccc(-c2ccc(OCCN3CCOCC3)cc2)cn1)NCc1ccccc1
system.under.test: U2OS
unit.annotation: %
recorded.result: 68
//
compound: O=C(Nc1ccc(-c2ccnc(Nc3ccc(N4CCOCC4)cc3)n2)cc1)[C@@H]1CCCN1
system.under.test: U2OS
unit.annotation: %
recorded.result: 32
//
compound: CCc1cccc(CC)c1NC(=O)c1nn(C)c2c1CCc1cnc(Nc3ccc(C(=O)NC4CCN(C)CC4)cc3OC(F)(F)F)nc1-2
system.under.test: U2OS
unit.annotation: %
recorded.result: 86
//
compound: S=C(NCCCc1c[nH]cn1)NCCCN(Cc1ccc(Cl)c(Cl)c1)c1ccc(Br)cn1
system.under.test: U2OS
unit.annotation: %
recorded.result: 89
//
compound: CN1CCN(C(=O)C(C)(C)c2ccc(C(=O)Nc3cn4cc(-c5ccncc5)ccc4n3)cc2)CC1
system.under.test: U2OS
unit.annotation: %
recorded.result: 81
//
compound: COc1cc(N2CCN(C)CC2)ccc1Nc1ncc2c(n1)N(C)c1ccccc1C(=O)N2C
system.under.test: U2OS
unit.annotation: %
recorded.result: 90
//
compound: CCN1CCN(Cc2ccc(Nc3ncc(F)c(-c4cc(F)c5nc(C)n(C(C)C)c5c4)n3)nc2)CC1.CS(=O)(=O)O
system.under.test: U2OS
unit.annotation: %
recorded.result: 95
//
compound: CNc1cc(Oc2cc(C(=O)Nc3cc(N4CCN(C)CC4)cc(C(F)(F)F)c3)ccc2C)ncn1
system.under.test: U2OS
unit.annotation: %
recorded.result: 89
//
compound: O=C1N/C(=N/c2ccccc2F)S/C1=C\c1ccc(C(=O)O)cc1
system.under.test: U2OS
unit.annotation: %
recorded.result: 9
